Tested on: NCI-H23 lung
assay comment: NCI-60 one-dose screen, 48 h (100 = growth as untreated, 0 = no growth, -100 = all killed)
measurement conditions: 10 µM unless noted
The panel holds about 83,000 compounds, 20% with a hit somewhere; the sample as a whole holds those more often.
Outcome label depends on growth relative to 90%: at/above gives Met, below gives Not met.

{"compound": "CNc1nc2c(s1)C(c1cc(F)ccc1F)CC(=O)N2 (stereo not drawn)", "system name": "NCI-H23 lung", "assigned label": "Not met"}

# check: growth of COc1cc(C(=O)N2N=C(c3ccc(S(C)(=O)=O)cc3)CC2c2ccco2)cc(OC)c1OC (stereo not drawn) is greater than or equal to 90%
Not met

# check: growth of "Cc1ccc(C(C)C)cc1C(=O)C[n+]1ccccc1" is greater than or equal to 90%
Met

# check: growth of "CCCCCCNC(=O)Oc1ccc(/C(=C(\C)c2ccc(OC)cc2)c2ccc(OCCN3CCCCC3)cc2)cc1" is greater than or equal to 90%
Not met

# check: growth of "COc1cccc(-c2nc(-c3ccc(NC(=O)C(C)C)cc3)[nH]c2-c2ccnc(Br)c2)c1" is greater than or equal to 90%
Not met

# check: growth of "COc1cc2cc(Oc3ccc(NC(=O)Nc4cccc(C(F)(F)F)c4)cc3)c(C)nc2cc1OCCN1CCOCC1" is greater than or equal to 90%
Not met

# check: growth of c1cc2nc(-c3cn[nH]c3)c3c(c2cc1-c1cn[nH]c1)C1CCC3C1 (stereo not drawn) is greater than or equal to 90%
Not met

# check: growth of "COc1ccc2nc(NCCCNCCO)c3sc4ccc(F)cc4c(=O)c3c2c1" is greater than or equal to 90%
Not met

# check: growth of "O=C(S)CNC(=O)c1ccccc1" is greater than or equal to 90%
Met

# check: growth of O=C(CCOCCNC(=O)COc1ccc2c(c1)OCC(c1ccc(F)cc1)C2=O)NCCCC(O)(P(=O)(O)O)P(=O)(O)O (stereo not drawn) is greater than or equal to 90%
Met

# check: growth of C=CCc1cc(C)ccc1NC(C(=O)NCC(=O)OC)c1ccccc1 (stereo not drawn) is greater than or equal to 90%
Met

# check: growth of "C[C@H]1[C@H]2[C@H]3CC[C@@H]4[C@@]5(C)CC[C@H](O)C(C)(C)[C@@H]5CC[C@@]4(C)[C@]3(C)CC[C@]23CO[C@]1(C)[C@@H](C(=O)/C=C\c1cccnc1)C3" is greater than or equal to 90%
Not met

# check: growth of "O=C1CN(CCN2CC(=O)N(Cc3ccccc3)C(=O)C2)CC(=O)N1Cc1ccccc1" is greater than or equal to 90%
Met

# check: growth of "c1ccc(-c2nc3nonc3nc2-c2ccccc2)cc1" is greater than or equal to 90%
Not met

# check: growth of "Clc1ccc2c(c1)N(CCCN1CCCC1)c1ccccc1S2" is greater than or equal to 90%
Not met

====

Tested on: SR leukemia
assay comment: NCI-60 one-dose screen, 48 h (100 = growth as untreated, 0 = no growth, -100 = all killed)
measurement conditions: 10 µM unless noted
The panel holds about 83,000 compounds, 20% with a hit somewhere; the sample as a whole holds those more often.
Outcome label depends on growth relative to 20%: at/above gives Condition met, below gives Condition not met.

{"molecule": "O=C(/C=C/c1cccc2ccccc12)c1ccc(NC(=O)c2ccccc2CN2C(=O)c3ccccc3C2=O)cc1", "assigned label": "Condition met"}

# check: growth of COc1ccc(C2C(N)=NNC2c2cccc(O)c2)cc1 (centres undefined) is greater than or equal to 20%
Condition met

# check: growth of "C=C1C(=O)O[C@H]2[C@H]1CC/C(COC(=O)CCSSCCC(=O)OC/C1=C/CC[C@@]3(C)O[C@H]3[C@H]3OC(=O)C(=C)[C@@H]3CC1)=C\CC[C@@]1(C)O[C@@H]21" is greater than or equal to 20%
Condition not met

====

System: T-47D breast
assay comment: NCI-60 one-dose screen, 48 h
measurement conditions: 10 µM unless noted
About 83,000 compounds went through this panel and 20% of them were active in at least one assay; those are over-represented in the sample as a whole. Calls of active or inactive are those of the source. The calls were made as follows: active = growth percent below 10; inactive = the rest.
Bench note: report the call from active, inactive

Examples with answers:
{"smiles record": "COc1cccc(-c2nc(-c3ccc(NS(=O)(=O)c4ccccc4)cc3)[nH]c2-c2ccnc(Br)c2)c1", "system name": "T-47D breast", "assigned label": "inactive"}
{"smiles record": "O=C(N/N=C/c1ccc(Cl)cc1)c1ccc(C(F)(F)F)nc1Nc1cccc(C(F)(F)F)c1", "system name": "T-47D breast", "assigned label": "active"}
{"smiles record": "N#Cc1c(-c2ccc(Cl)cc2)nc2c(c(-c3ccccc3)nn2-c2ccccc2)c1-c1ccc(O)cc1", "system name": "T-47D breast", "assigned label": "inactive"}
{"smiles record": "CCCCn1c(=O)c(-c2cc(-c3ccc(Cl)cc3)nc(-c3ccc(Cl)cc3)c2)cc2ccc(Cl)cc21", "system name": "T-47D breast", "assigned label": "inactive"}
{"smiles record": "Cn1cc(-c2ccc3cc(-c4ccc(CC(=O)Nc5cc(C(C)(C)C)nn5C)cc4)cnc3c2)cn1", "system name": "T-47D breast", "assigned label": "active"}

Please share the test call associated with "O=c1c2cc(F)ccc2sc2c(N3CCCCC3)nc3ccccc3c12" .
inactive

Please share the test call associated with "O=c1c2cc(F)ccc2sc2c(N3CCNCC3)nc3ccc(F)cc3c12" .
inactive

Please share the test call associated with "O=c1c2cc(F)ccc2sc2c(NCCCNCCO)nc3ccccc3c12" .
inactive

Please share the test call associated with "O=c1c2cc(F)ccc2sc2c(N3CCNCC3)nc3ccccc3c12" .
inactive

====

Tested on: M14 melanoma
assay comment: NCI-60 one-dose screen, 48 h (100 = growth as untreated, 0 = no growth, -100 = all killed)
measurement conditions: 10 µM unless noted
This is part of a sample that, as a whole, favours compounds with a hit. Of some 83,000 tested, about 20% had one in any assay. Calls of active or inactive are those of the source. The calls were made as follows: active = growth percent below 10; inactive = the rest.
readout label: growth

Some solved entries appear below for comparison.
{"compound": "CN1CCN(CC(=O)N2c3cccc4cccc(c34)N(C(=O)CN3CCN(C)CC3)C2c2cn(-c3ccccc3)nc2-c2cccc([N+](=O)[O-])c2)CC1", "system name": "M14 melanoma", "growth": "-81.7% (active)"}
{"compound": "Cc1nn(-c2ccccc2)c(-n2ccnc2)c1/C=N/Nc1nc(-c2ccc(Cl)c(Cl)c2)cs1", "system name": "M14 melanoma", "growth": "45.1% (inactive)"}
{"compound": "O=C(Nc1ccc(Br)cc1F)c1cc(Br)ccc1O", "system name": "M14 melanoma", "growth": "8.04% (active)"}

I would be grateful if you could share the reported growth for "O=[N+]([O-])c1ccccc1NCSc1ccc(Cl)cc1" .
102% (inactive)

I would be grateful if you could share the reported growth for C=CCc1cc(C)ccc1NC(C(=O)NCC(=O)OC)c1ccccc1 (configuration not stated) .
96.6% (inactive)

I would be grateful if you could share the reported growth for "CC(=O)O.CN1[CH-]N(Cc2ccc(C#N)cc2)c2ccccc21.[Ag+]" .
100% (inactive)

I would be grateful if you could share the reported growth for "Oc1ccc(CCl)c2cccnc12" .
61.6% (inactive)

I would be grateful if you could share the reported growth for "CCCCCCn1c(-c2ccc(C(=O)O/N=C(\N)c3ccc(OC)cc3)cc2)nc(-c2ccccc2)c1-c1ccccc1" .
40.9% (inactive)

====

Test system: PC-3 prostate
assay comment: NCI-60 one-dose screen, 48 h
measurement conditions: 10 µM unless noted
This is part of a sample that, as a whole, favours compounds with a hit. Of some 83,000 tested, about 20% had one in any assay. Calls of active or inactive are those of the source. How the source made its calls: active means growth percent below 10; inactive means the rest.
Bench note: report the call from active, inactive

Examples with answers:
{"molecule": "Cc1nc2ccccc2c(/C=C/c2ccc(Cl)cc2)c1C(=O)/C=C/c1cccs1", "assigned label": "inactive"}
{"molecule": "NC[C@@H]1O[C@H](O[C@@H]2[C@@H](CO)OC(O[C@@H]3[C@@H](O)[C@H](N)C[C@H](N)[C@H]3OC3O[C@H](CN)[C@@H](O)[C@H](O)[C@H]3N)[C@@H]2O)[C@H](N)[C@@H](O)[C@@H]1O (stereo partly drawn)", "assigned label": "inactive"}
{"molecule": "C[C@]12CC[C@@H]3c4cc(OC(F)F)c(OS(N)(=O)=O)cc4CC[C@H]3[C@@H]1CC[C@@H]2OS(N)(=O)=O", "assigned label": "inactive"}
{"molecule": "Oc1ccc(CCl)c2cccnc12", "assigned label": "inactive"}
{"molecule": "O=c1c2cc(F)ccc2sc2c(N3CCNCC3)nc3ccccc3c12", "assigned label": "inactive"}

Please share the test call associated with "COc1cc(/C=N/NC(=O)c2ccc(C)nc2)cc(OC)c1OC" .
inactive

Please share the test call associated with "COc1cc(C(=O)c2cc(C)c3[nH]c4ccc(C)cc4c3c2C)cc(OC)c1OC" .
inactive

Attribution: PubChem BioAssay (NCI)
